Origin of the recorded values: ChEMBL document CHEMBL1159095

- Protocol details: Permeability assessed as drug flux at pH 7.4 by PAMPA assay
- Type: ADME
Readout type: permeability (%)
Record the value in %, omitting the unit from your answer.

Molecule	Readout type	Unit info	Assay value
COCCNc1nnc(Sc2ncc([N+](=O)[O-])s2)s1	permeability	%	49.8

Moving on to the next molecule.
get_value(item= COc1ccc(CCNc2nnc(Sc3ncc([N+](=O)[O-])s3)s2)cc1OC , readout=permeability) returns 76.3

###

- Study system: Mitogen-activated protein kinase 8 (Homo sapiens, UniProt P45983)
- Sequence (P45983 whole entry): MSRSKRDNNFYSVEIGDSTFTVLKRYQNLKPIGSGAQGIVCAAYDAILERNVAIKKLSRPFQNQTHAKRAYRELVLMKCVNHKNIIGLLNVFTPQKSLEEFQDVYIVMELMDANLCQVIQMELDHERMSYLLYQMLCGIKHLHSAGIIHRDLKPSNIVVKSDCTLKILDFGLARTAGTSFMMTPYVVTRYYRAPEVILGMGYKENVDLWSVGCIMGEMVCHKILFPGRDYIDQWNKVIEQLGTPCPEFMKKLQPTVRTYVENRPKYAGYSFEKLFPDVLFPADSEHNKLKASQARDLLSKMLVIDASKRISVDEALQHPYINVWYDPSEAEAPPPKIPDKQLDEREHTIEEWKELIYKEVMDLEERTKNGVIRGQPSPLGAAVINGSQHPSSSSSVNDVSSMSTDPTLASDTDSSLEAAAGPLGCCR
- Protocol details: Inhibition of JNK1 by TR-FRET assay
pIC50: −log10 of the molar value.
Threshold rule: pIC50 greater than or equal to 5 is yes; below that, no.

Observe how each entry below is paired with its result.
Compound	Study system	Group label
CCNc1nnc(Sc2ncc([N+](=O)[O-])s2)s1	Mitogen-activated protein kinase 8 (Homo sapiens, UniProt P45983)	no
CCCNc1nnc(Sc2ncc([N+](=O)[O-])s2)s1	Mitogen-activated protein kinase 8 (Homo sapiens, UniProt P45983)	yes
COCCNc1nnc(Sc2ncc([N+](=O)[O-])s2)s1	Mitogen-activated protein kinase 8 (Homo sapiens, UniProt P45983)	yes

[Q] Would you say COc1ccc(CCNc2nnc(Sc3ncc([N+](=O)[O-])s3)s2)cc1OC shows pIC50 at minimum 5?
[A] yes

[Q] Would you say CCC(C)Nc1nnc(Sc2ncc([N+](=O)[O-])s2)s1 (configuration not stated) shows pIC50 at minimum 5?
[A] yes

###

Listing: pIC50 of selected compounds
- Study system: Mitogen-activated protein kinase 14 (Homo sapiens)
- Sequence (Q16539 whole entry): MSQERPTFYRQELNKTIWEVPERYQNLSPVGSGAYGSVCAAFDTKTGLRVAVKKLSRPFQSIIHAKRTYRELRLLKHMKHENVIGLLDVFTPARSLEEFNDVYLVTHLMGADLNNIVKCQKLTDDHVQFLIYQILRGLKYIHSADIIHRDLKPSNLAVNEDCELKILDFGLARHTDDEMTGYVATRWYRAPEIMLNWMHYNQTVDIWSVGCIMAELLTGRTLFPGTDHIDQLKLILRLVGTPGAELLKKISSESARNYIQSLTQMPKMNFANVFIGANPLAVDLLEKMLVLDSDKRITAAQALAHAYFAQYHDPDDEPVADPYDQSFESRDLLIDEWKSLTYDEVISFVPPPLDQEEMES
- Protocol details: Inhibition of p38alpha MAPK
pIC50: −log10 of the molar value.

Compound	Study system	Assay value
CCC(C)Nc1nnc(Sc2ncc([N+](=O)[O-])s2)s1 (centres undefined)	Mitogen-activated protein kinase 14 (Homo sapiens)	< 4.00
CCCNc1nnc(Sc2ncc([N+](=O)[O-])s2)s1	Mitogen-activated protein kinase 14 (Homo sapiens)	< 4.00
COc1ccc(CCNc2nnc(Sc3ncc([N+](=O)[O-])s3)s2)cc1OC	Mitogen-activated protein kinase 14 (Homo sapiens)	< 4.00

Moving on to the next compound.
get_value(item= COCCNc1nnc(Sc2ncc([N+](=O)[O-])s2)s1 , readout=pIC50) returns < 4.00

###

- Protocol details: Metabolic stability in rat plasma assessed as compound remaining after 30 mins by LC/MS-MS
- Format: ADME, cell-free
- Experimental parameters: read-out: Stability
Readout type: remaining at 0.5 h (%)
Record the value in %, omitting the unit from your answer.

Worked examples follow.
Compound	Unit info	remaining at 0.5 h
CCC(C)Nc1nnc(Sc2ncc([N+](=O)[O-])s2)s1 (centres undefined)	%	90
COCCNc1nnc(Sc2ncc([N+](=O)[O-])s2)s1	%	79.7
CCCNc1nnc(Sc2ncc([N+](=O)[O-])s2)s1	%	48.1

get_value(item= COc1ccc(CCNc2nnc(Sc3ncc([N+](=O)[O-])s3)s2)cc1OC , readout=remaining at 0.5 h) returns 6.05

###

- Study system: Mitogen-activated protein kinase 9 (Homo sapiens)
- Protocol details: Displacement of biotin-labeled pep-JIP1from JNK2 by DELFIA assay
Flag rule - IC50 less than 200 nM flags rule met; the remaining entries get rule not met.

[Q] For this compound, is IC50 lower than 200 nM? COc1ccc(CNc2nnc(Sc3ncc([N+](=O)[O-])s3)s2)cc1
[A] rule met

[Q] For this compound, is IC50 lower than 200 nM? O=[N+]([O-])c1cnc(Sc2nnc(O)n2-c2ccc3c(c2)OCCO3)s1
[A] rule not met

[Q] For this compound, is IC50 lower than 200 nM? O=[N+]([O-])c1cnc(Sc2nnc(NCC3CCCO3)s2)s1 (stereo not drawn)
[A] rule not met

[Q] For this compound, is IC50 lower than 200 nM? CCNc1nnc(Sc2ncc([N+](=O)[O-])s2)s1
[A] rule not met

[Q] For this compound, is IC50 lower than 200 nM? CCC(C)Nc1nnc(Sc2ncc([N+](=O)[O-])s2)s1 (stereo not drawn)
[A] rule met

[Q] For this compound, is IC50 lower than 200 nM? CCCNc1nnc(Sc2ncc([N+](=O)[O-])s2)s1
[A] rule not met

[Q] For this compound, is IC50 lower than 200 nM? COc1ccc(CCNc2nnc(Sc3ncc([N+](=O)[O-])s3)s2)cc1OC
[A] rule met

[Q] For this compound, is IC50 lower than 200 nM? COCCNc1nnc(Sc2ncc([N+](=O)[O-])s2)s1
[A] rule met

###

Listing: pKd of selected compounds
- Study system: Mitogen-activated protein kinase 9 (Homo sapiens, UniProt P45984, C163S)
- Sequence (P45984 whole entry C163S): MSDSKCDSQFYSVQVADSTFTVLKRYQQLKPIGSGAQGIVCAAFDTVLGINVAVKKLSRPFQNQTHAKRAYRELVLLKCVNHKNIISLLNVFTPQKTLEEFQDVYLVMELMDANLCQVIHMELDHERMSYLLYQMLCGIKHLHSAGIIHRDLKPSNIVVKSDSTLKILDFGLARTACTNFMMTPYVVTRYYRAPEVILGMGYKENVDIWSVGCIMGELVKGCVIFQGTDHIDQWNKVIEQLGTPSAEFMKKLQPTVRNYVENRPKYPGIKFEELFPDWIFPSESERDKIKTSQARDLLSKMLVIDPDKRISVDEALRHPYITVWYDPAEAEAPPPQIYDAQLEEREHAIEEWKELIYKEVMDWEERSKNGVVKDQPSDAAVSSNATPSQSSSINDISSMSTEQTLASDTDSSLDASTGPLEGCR
- Protocol details: Inhibition of JNK2 C163S mutant by isothermal calorimetry
Reminder that pKd means the negative base-10 logarithm of the concentration expressed in mol/L.

Worked examples follow.
Item smiles	Study system	Assay value
O=[N+]([O-])c1cnc(Sc2nnc(O)n2-c2ccc3c(c2)OCCO3)s1	Mitogen-activated protein kinase 9 (Homo sapiens, UniProt P45984, C163S)	4.29
COc1ccc(CCNc2nnc(Sc3ncc([N+](=O)[O-])s3)s2)cc1OC	Mitogen-activated protein kinase 9 (Homo sapiens, UniProt P45984, C163S)	5.72
CCCNc1nnc(Sc2ncc([N+](=O)[O-])s2)s1	Mitogen-activated protein kinase 9 (Homo sapiens, UniProt P45984, C163S)	5.14

Moving on to the next compound.
Known value: Mitogen-activated protein kinase 9 (Homo sapiens, UniProt P45984, C163S) pKd of the compound COCCNc1nnc(Sc2ncc([N+](=O)[O-])s2)s1 equals 5.38

###

- Protocol details: Metabolic stability in rat plasma assessed as compound remaining after 60 mins by LC/MS-MS
- Assay type: ADME, cell-free
- Experimental parameters: read-out: Stability
Readout type: remaining at 1 h (%)
Record the value in %, omitting the unit from your answer.

Item smiles	Assay value
CCCNc1nnc(Sc2ncc([N+](=O)[O-])s2)s1	42
COCCNc1nnc(Sc2ncc([N+](=O)[O-])s2)s1	35
COc1ccc(CCNc2nnc(Sc3ncc([N+](=O)[O-])s3)s2)cc1OC	68

Moving on to the next compound.
get_value(item= O=[N+]([O-])c1cnc(Sc2nnc(O)n2-c2ccc3c(c2)OCCO3)s1 , readout=remaining at 1 h) returns 0

###

Target or system UniProt:P15917; recorded quantity IC50.
Sequence (P15917 whole entry): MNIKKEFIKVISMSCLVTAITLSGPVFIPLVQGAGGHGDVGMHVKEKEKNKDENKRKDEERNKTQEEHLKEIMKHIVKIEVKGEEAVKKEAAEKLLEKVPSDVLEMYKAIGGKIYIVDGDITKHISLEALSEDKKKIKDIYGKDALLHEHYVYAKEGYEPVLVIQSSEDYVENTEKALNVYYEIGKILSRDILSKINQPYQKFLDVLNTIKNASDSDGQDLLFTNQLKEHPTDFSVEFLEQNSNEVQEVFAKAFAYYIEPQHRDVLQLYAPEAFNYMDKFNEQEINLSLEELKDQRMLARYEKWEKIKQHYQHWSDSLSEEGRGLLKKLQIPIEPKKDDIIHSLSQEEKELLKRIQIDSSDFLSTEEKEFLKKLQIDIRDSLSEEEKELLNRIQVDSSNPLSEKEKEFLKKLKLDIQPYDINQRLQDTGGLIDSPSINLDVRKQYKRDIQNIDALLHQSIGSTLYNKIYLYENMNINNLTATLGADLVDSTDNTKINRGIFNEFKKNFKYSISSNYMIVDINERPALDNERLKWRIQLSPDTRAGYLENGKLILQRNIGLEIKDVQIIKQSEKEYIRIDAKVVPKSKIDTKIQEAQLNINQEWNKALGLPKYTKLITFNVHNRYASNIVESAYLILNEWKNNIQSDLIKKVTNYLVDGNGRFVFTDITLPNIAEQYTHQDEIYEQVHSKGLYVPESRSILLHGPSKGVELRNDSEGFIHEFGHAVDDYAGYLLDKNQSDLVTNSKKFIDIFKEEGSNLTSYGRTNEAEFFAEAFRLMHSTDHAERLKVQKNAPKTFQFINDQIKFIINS

Worked examples follow.
Compound	Study system	IC50
CCCNc1nnc(Sc2ncc([N+](=O)[O-])s2)s1	UniProt:P15917	> 100 µM
COCCNc1nnc(Sc2ncc([N+](=O)[O-])s2)s1	UniProt:P15917	> 100 µM

Known value: UniProt:P15917 IC50 of the compound COc1ccc(CCNc2nnc(Sc3ncc([N+](=O)[O-])s3)s2)cc1OC equals > 100 µM

Known value: UniProt:P15917 IC50 of the compound CCC(C)Nc1nnc(Sc2ncc([N+](=O)[O-])s2)s1 (centres undefined) equals > 100 µM

###

- Protocol details: Permeability assessed as drug flux at pH 7.4 by PAMPA assay
- Format: ADME
Readout type: permeability (%)
Record the value in %, omitting the unit from your answer.

Compound	permeability, %
CCCNc1nnc(Sc2ncc([N+](=O)[O-])s2)s1	30
CCC(C)Nc1nnc(Sc2ncc([N+](=O)[O-])s2)s1 (stereo not drawn)	7.9

Moving on to the next compound.
get_value(item= O=[N+]([O-])c1cnc(Sc2nnc(O)n2-c2ccc3c(c2)OCCO3)s1 , readout=permeability) returns 5.5
